Every entry's value here was drawn from patent US20070015260A1.

- MEASUREMENT_NOTES: DERA cleavage (retroaldol) coupled assay, unnatural substrate DR
- Assay type: biochemical
- TEST_PARAMETERS: DR compared to DRP, read
READOUT_TYPE: ratio of specificity constants {kcat/KM (DR)}/{kcat/KM (DRP)}
Numbers only.

Ask | What value of ratio of specificity constants {kcat/KM (DR)}/{kcat/KM (DRP)} has been reported for the following molecule? S238D: DERA variant, phosphate binding pocket residue Ser238 replaced with Asp (protein, UniProt P0A6L0 1-259, looked up, variant S238D) Deoxyribose-phosphate aldolase: MTDLKASSLRALKLMDLTTLNDDDTDEKVIALCHQAKTPVGNTAAICIYPRFIPIARKTLKEQGTPEIRIATVTNFPHGNDDIDIALAETRAAIAYGADEVDVVFPYRALMAGNEQVGFDLVKACKEACAAANVLLKVIIETGELKDEALIRKASEISIKAGADFIKTSTGKVAVNATPESARIMMEVIRDMGVEKTVGFKPAGGVRTAEDAQKYLAIADELFGADWADARHYRFGADSLLASLLKALGHGDGKSASSY
Reply | 0.13
